- System: RAW264.7
- TEST_DETAILS: Inhibition of TRAP activity in RANKL-induced osteoclastogenesis in RAW 264.7 cells
- Type: functional, cell-based
- MEASUREMENT_CONTEXT: Mus musculus
The entries below come with measured pIC50 values attached.
Scale note: pIC50 = -log10(concentration in M).

Cc1coc2c1C(=O)C(=O)c1c-2ccc2c1CCCC2(C)COC(=O)COCCOC(=O)CCCCC1SCC2NC(=O)NC21 (stereo not given) on RAW264.7 gives pIC50 = 4.91

Cc1coc2c1C(=O)C(=O)c1c-2ccc2c1CC[C@H](OCCO)C2(C)C on RAW264.7 gives pIC50 = 4.99

Cc1coc2c1C(=O)C(=O)c1c-2ccc2c1CCCC2(C)C on RAW264.7 gives pIC50 = 4.74

New cases:
Cc1coc2c1C(=O)C(=O)c1c-2ccc2c1CC[C@H](OCCOC(=O)COc1cccc(C3(C(F)(F)F)N=N3)c1)C2(C)C on RAW264.7 gives pIC50 = 4.74

Cc1coc2c1C(=O)C(=O)c1c-2ccc2c1CCCC2(C)CO (stereo not given) on RAW264.7 gives pIC50 = 4.81

CCC(=O)O[C@H]1CCc2c(ccc3c2C(=O)C(=O)c2c(C)coc2-3)C1(C)C on RAW264.7 gives pIC50 = 4.78

Cc1coc2c1C(=O)C(=O)c1c-2ccc2c1CCCC2(C)COC(=O)COCCOC(=O)COc1cccc(C2(C(F)(F)F)N=N2)c1 (stereo not given) on RAW264.7 gives pIC50 = 4.82

Cc1coc2c1C(=O)C(=O)c1c-2ccc2c1CC[C@H](OC(=O)c1ccccc1)C2(C)C on RAW264.7 gives pIC50 = 4.72

Cc1coc2c1C(=O)C(=O)c1c-2ccc2c1CC[C@H](OCCOC(=O)CCCCC1SCC3NC(=O)NC31)C2(C)C (stereo not given in full) on RAW264.7 gives pIC50 = 5.02

Cc1coc2c1C(=O)C(=O)c1c-2ccc2c1CC[C@H](O)C2(C)C on RAW264.7 gives pIC50 = 4.89

Taken from ChEMBL document CHEMBL1149350.
